Below, each of the molecules is paired with its reported melting point value.

The following molecules have reported results that may help.
> print(dat)
                                   molecule      parameter  value.reported
1                  CCOC(=O)CC(=O)NCc1ccccc1  melting point     50 to 52 °C
2  O=C1CCc2ccc(Oc3c(F)cc(C(F)(F)F)cc3Cl)cc21  melting point           75 °C
3  Cc1c(NC(=O)c2ccc(OCC3CCOC3)cc2)ccc2cc(CNC(C)C)cnc12 (centres undefined)  melting point          106 °C

Item COc1ccc(N2C(=O)CCN(C)c3ccc(Cl)cc32)cc1 has what recorded melting point?
144 to 145 °C

Item CCN(CC)CCC(=O)Nc1ccc2c(=O)c3ccc(NC(=O)CCN(CC)CC)cc3[nH]c2c1 has what recorded melting point?
> 320 °C

Item CC(CNC(c1ccccc1)c1ccccc1)NC(c1ccccc1)c1ccccc1 (centres undefined) has what recorded melting point?
72 to 75 °C

Item O=C1Cc2cccc(CNC(=O)C3Cc4ccccc4N3S(=O)(=O)c3ccc(-c4cccc(C(F)(F)F)c4)cc3)c2N1 (centres undefined) has what recorded melting point?
50 °C

Item CN1C(=O)N(c2ccc([N+](=O)[O-])c(C(F)(F)F)c2)C(=O)C1(C)CF (centres undefined) has what recorded melting point?
118 to 119 °C

Item CCOC(=O)Cc1ccc2c(c1)C(O)c1ccccc1O2 (centres undefined) has what recorded melting point?
214 to 219 °C
